// provenance: patent US8093274B2

# subject of test: GGTase I (substrate RhoA) (Homo sapiens, UniProt P49354+P53609)
# protocol summary: GGTase I filter-binding assay with RhoA as substrate
# Type: biochemical
# conditions used: read-out: % activity of GGTase I for protein RhoA in the presence of the compound
experimental endpoint: activity at 50 µM (%)
Report as a plain number; the unit % is understood.

**Q:** Given the molecule Cc1ccc(S(=O)(=O)N2C(c3ccc(Cl)c(Cl)c3)CC=C(C(=O)O)[C@@H]2c2ccc(Br)cc2)cc1 (stereo partly drawn) , what is its reported activity at 50 µM?
**A:** 11.3

**Q:** Given the molecule Cc1ccc(S(=O)(=O)N2[C@@H](c3cccc(F)c3)C(C(=O)O)=C[C@H]2C(C)(C)C)cc1 , what is its reported activity at 50 µM?
**A:** 9.1

**Q:** Given the molecule Cc1ccccc1S(=O)(=O)N1C(c2ccc(Cl)cc2)CC=C(C(=O)O)[C@@H]1c1ccccc1 (stereo partly drawn) , what is its reported activity at 50 µM?
**A:** 5.8

**Q:** Given the molecule Cc1ccc(S(=O)(=O)N2C(c3ccc(Cl)c(Cl)c3)CC=C(C(=O)O)[C@@H]2c2cccc(Br)c2)cc1 (stereo partly drawn) , what is its reported activity at 50 µM?
**A:** 3.2

**Q:** Given the molecule Cc1ccccc1S(=O)(=O)N1[C@@H](c2ccc(Cl)cc2)C(C(=O)O)=C[C@H]1CC1CCCC1 , what is its reported activity at 50 µM?
**A:** 9.1

**Q:** Given the molecule Cc1ccc(S(=O)(=O)N2C(c3ccc(Cl)c(Cl)c3)CC=C(C(=O)O)[C@@H]2c2cccc(Cl)c2)cc1 (stereo partly drawn) , what is its reported activity at 50 µM?
**A:** 4.5
